# setup.conditions: 10 μM initial concentration; Without NADPH; 30 min
property: Test Article remaining, percent of initial concentration (%)
Give just the numeric value; % need not be written.

Illustrative cases are given below, each with its answer.
molecule	test.result
CC1(C)CCSc2ccc(C#Cc3ccc(C(=O)O)cn3)cc21 [Tazarotenic acid]	99.0
CCOC(=O)c1ccc(C#Cc2ccc3c(c2)C(C)(C)CC[S+]3[O-])nc1 (stereo not shown) [Tazarotene sulfoxide]	8.96
CCOC(=O)c1ccc(C#Cc2ccc3c(c2)C(C)(C)CCS3)nc1 [Tazarotene]	4.64

Now look at this one.
Asked: Would you kindly share the measured Test Article remaining, percent of initial concentration for CCOC(=O)c1ccc(C#Cc2ccc3c(c2)C(C)(C)CC(OC(=O)c2ccccc2)S3)nc1 (stereo not shown) [Compound 4] ?
Given back: 64.0
